molecular target: UniProt:P00533; experiment: Biochemical EGFR kinase assay (Lance Ultra TR-FRET), wildtype; settings: Km ATP; read-out: IC50 WT (nM) Km ATP
Each record is given t if its reported IC50 is strictly below 200 nM. Records at or above 200 nM are given f.

>  <molecule>
C[C@]1(O)CC[C@@H](Nc2cc(Nc3ccnc(-c4cnn(S(=O)(=O)N5CCCC5)c4)n3)ncc2-c2ccn(C(F)F)n2)CC1

>  <class_label>
f

$$$$
>  <molecule>
O=S(=O)(C1CC1)n1cc(-c2nccc(Nc3cc(N[C@H]4CC[C@H](CCO)CC4)c(-c4ccn(CC(F)(F)F)n4)cn3)n2)cn1

>  <class_label>
f

$$$$
>  <molecule>
O=S(=O)(C1CC1)n1cc(-c2nccc(Nc3cc(NC4CCC(F)(F)CC4)c(-c4ccn(C(F)F)n4)cn3)n2)cn1

>  <class_label>
f

$$$$
>  <molecule>
COCCn1cc(-c2nccc(Nc3cc(N[C@H]4CC[C@@](C)(O)CC4)c(-c4ccn(C(F)F)n4)cn3)n2)cn1

>  <class_label>
t

$$$$
>  <molecule>
Cc1cc(-c2cnc(Nc3ccnc(-c4cnn(S(=O)(=O)C5CC5)c4)n3)cc2N[C@H]2CC[C@@](C)(O)CC2)nn1C

>  <class_label>
t

$$$$
>  <molecule>
C[C@]1(O)CC[C@@H](Nc2cc(Nc3ccnc(-c4cnn(S(=O)(=O)C5CC5)c4)n3)ncc2-c2ccn(C3CC3)n2)CC1

>  <class_label>
t

$$$$
>  <molecule>
CS(=O)(=O)n1cc(-c2nccc(Nc3cc(N[C@H]4CC[C@@](C)(O)CC4)c(-c4ccn(C(F)F)n4)cn3)n2)cn1

>  <class_label>
f

$$$$
>  <molecule>
Cn1ccc(-c2cnc(Nc3ccnc(-c4cnn(S(=O)(=O)C5CC5)c4)n3)cc2N[C@H]2CC[C@@H](NCCF)CC2)n1

>  <class_label>
t

$$$$
>  <molecule>
Cn1ccc(-c2cnc(Nc3ccnc(-c4cnn(S(=O)(=O)C5CC5)c4)n3)cc2N[C@H]2CC[C@@H](F)CC2)n1

>  <class_label>
t

$$$$
>  <molecule>
O=S(=O)(C1CC1)n1cc(-c2nccc(Nc3cc(N[C@H]4CC[C@@H](F)CC4)c(-c4ccn(C(F)(F)F)n4)cn3)n2)cn1

>  <class_label>
f

$$$$
>  <molecule>
CC1(O)CCC(Oc2cc(Nc3ccnc(-c4cnn(S(=O)(=O)C5CC5)c4)n3)ncc2-c2ccn(C(F)F)n2)CC1 (stereo not shown)

>  <class_label>
t

$$$$
>  <molecule>
CC1CC(Nc2cc(Nc3ccnc(-c4cnn(S(=O)(=O)C5CC5)c4)n3)ncc2-c2ccn(C(F)F)n2)CCC1O (stereo not shown)

>  <class_label>
t

$$$$
>  <molecule>
O=S(=O)(C1CC1)n1cc(-c2nccc(Nc3cc(NC4CCC(CCO)CC4)c(-c4ccn(C(F)F)n4)cn3)n2)cn1 (stereo not shown)

>  <class_label>
t

$$$$

====

Target: EGFR del19/T790M/C797S (Homo sapiens, UniProt P00533, C797S/DEL746-750/T790M)
Sequence (P00533 with tags, fused parts or gaps DEL746-750/T790M/C797S): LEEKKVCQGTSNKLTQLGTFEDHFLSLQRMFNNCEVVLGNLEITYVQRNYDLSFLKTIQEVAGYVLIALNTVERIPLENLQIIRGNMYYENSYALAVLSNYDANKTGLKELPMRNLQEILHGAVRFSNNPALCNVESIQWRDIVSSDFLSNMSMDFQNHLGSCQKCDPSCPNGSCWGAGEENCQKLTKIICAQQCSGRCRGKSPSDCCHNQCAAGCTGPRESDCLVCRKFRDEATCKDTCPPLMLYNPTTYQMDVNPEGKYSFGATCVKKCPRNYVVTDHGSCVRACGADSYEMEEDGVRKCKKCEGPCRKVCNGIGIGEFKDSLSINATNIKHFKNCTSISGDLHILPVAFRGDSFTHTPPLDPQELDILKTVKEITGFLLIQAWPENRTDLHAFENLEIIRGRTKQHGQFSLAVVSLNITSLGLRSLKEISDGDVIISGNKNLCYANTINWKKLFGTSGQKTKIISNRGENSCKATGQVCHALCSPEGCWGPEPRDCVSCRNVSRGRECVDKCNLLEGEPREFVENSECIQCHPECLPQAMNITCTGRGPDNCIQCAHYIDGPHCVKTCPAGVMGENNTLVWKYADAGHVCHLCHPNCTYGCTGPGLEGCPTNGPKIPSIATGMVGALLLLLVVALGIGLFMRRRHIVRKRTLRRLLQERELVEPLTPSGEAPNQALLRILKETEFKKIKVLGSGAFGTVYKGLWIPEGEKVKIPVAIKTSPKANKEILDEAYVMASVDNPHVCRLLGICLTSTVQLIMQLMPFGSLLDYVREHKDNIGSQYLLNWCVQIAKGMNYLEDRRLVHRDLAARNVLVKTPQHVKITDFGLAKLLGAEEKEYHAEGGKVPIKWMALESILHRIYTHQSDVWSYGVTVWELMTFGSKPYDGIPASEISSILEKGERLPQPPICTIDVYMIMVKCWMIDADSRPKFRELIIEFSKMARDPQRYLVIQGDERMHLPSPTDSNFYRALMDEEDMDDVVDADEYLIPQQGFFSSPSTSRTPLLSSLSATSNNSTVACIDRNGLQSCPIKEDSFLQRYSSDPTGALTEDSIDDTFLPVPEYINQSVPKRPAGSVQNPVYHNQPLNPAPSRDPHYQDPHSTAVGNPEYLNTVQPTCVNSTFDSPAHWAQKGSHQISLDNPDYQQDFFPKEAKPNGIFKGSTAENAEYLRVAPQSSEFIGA
Experiment: Biochemical EGFR kinase assay (Lance Ultra TR-FRET), triple mutant del19/T790M/C797S
Conditions: Km ATP; read-out: IC50 del19/T790M/C797S (nM) Km ATP
Experimental: Biochemical EGFR kinase assays were conducted using Lance Ultra time-resolved fluorescence resonance energy transfer (TR-FRET) technology from Perkin-Elmer. […] Each kinase reactions were incubated at room temperature for 1 hour and then stopped by the addition of 4 μL of stop solution (10 mM EDTA). […] After 60 minutes incubation at room temperature the LANCE signal was measured on an EnVision Multilabel Reader (Perkin-Elmer). […]

>  <compound>
CC1(C)CC(Nc2cc(Nc3ccnc(-c4cnn(S(=O)(=O)C5CC5)c4)n3)ncc2-c2ccn(C(F)F)n2)CCC1O (stereo not shown)

>  <assay_target>
EGFR del19/T790M/C797S (Homo sapiens, UniProt P00533, C797S/DEL746-750/T790M)

>  <IC50, nM>
3.9

$$$$
>  <compound>
CC(C)(O)[C@H]1CC[C@@H](Nc2cc(Nc3ccnc(-c4cnn(S(=O)(=O)C5CC5)c4)n3)ncc2-c2ccn(C3COC3)n2)CC1

>  <assay_target>
EGFR del19/T790M/C797S (Homo sapiens, UniProt P00533, C797S/DEL746-750/T790M)

>  <IC50, nM>
0.6

$$$$
>  <compound>
CCS(=O)(=O)n1ccc(-c2nccc(Nc3cc(N[C@H]4CC[C@@](C)(O)CC4)c(-c4ccn(C(F)F)n4)cn3)n2)n1

>  <assay_target>
EGFR del19/T790M/C797S (Homo sapiens, UniProt P00533, C797S/DEL746-750/T790M)

>  <IC50, nM>
4.4

$$$$
>  <compound>
O=S(=O)(C1CC1)n1cc(-c2nccc(Nc3cc(N[C@H]4CC[C@](O)(CO)CC4)c(-c4ccn(C(F)F)n4)cn3)n2)cn1

>  <assay_target>
EGFR del19/T790M/C797S (Homo sapiens, UniProt P00533, C797S/DEL746-750/T790M)

>  <IC50, nM>
0.3

$$$$
>  <compound>
O=S(=O)(C1CC1)n1cc(-c2nccc(Nc3cc(N[C@H]4CC[C@](O)(CO)CC4)c(-c4cc5n(n4)CCCC5)cn3)n2)cn1

>  <assay_target>
EGFR del19/T790M/C797S (Homo sapiens, UniProt P00533, C797S/DEL746-750/T790M)

>  <IC50, nM>
0.4

$$$$
>  <compound>
CN(C)CC1(C)CCC(Nc2cc(Nc3ccnc(-c4cnn(S(=O)(=O)C5CC5)c4)n3)ncc2-c2ccn(CC(F)F)n2)CC1 (stereo not shown)

>  <assay_target>
EGFR del19/T790M/C797S (Homo sapiens, UniProt P00533, C797S/DEL746-750/T790M)

>  <IC50, nM>
1

$$$$
>  <compound>
Cc1cc(-c2cnc(Nc3ccnc(-c4cnn(S(=O)(=O)C5CC5)c4)n3)cc2N[C@H]2CC[C@@H](CO)CC2)nn1C

>  <assay_target>
EGFR del19/T790M/C797S (Homo sapiens, UniProt P00533, C797S/DEL746-750/T790M)

>  <IC50, nM>
0.8

$$$$
>  <compound>
C[C@]1(O)CC[C@@H](Nc2cc(Nc3ccnc(-c4ccc(F)nc4F)n3)ncc2-c2ccn(C(F)F)n2)CC1

>  <assay_target>
EGFR del19/T790M/C797S (Homo sapiens, UniProt P00533, C797S/DEL746-750/T790M)

>  <IC50, nM>
49.7

$$$$
>  <compound>
CN(C)C[C@H]1C[C@H](CNc2cc(Nc3ccnc(-c4cnn(S(=O)(=O)C5CC5)c4)n3)ncc2-c2ccn(C(F)F)n2)C1

>  <assay_target>
EGFR del19/T790M/C797S (Homo sapiens, UniProt P00533, C797S/DEL746-750/T790M)

>  <IC50, nM>
0.3

$$$$
>  <compound>
Cn1nc(-c2cnc(Nc3ccnc(-c4cnn(S(=O)(=O)C5CC5)c4)n3)cc2N[C@H]2CCC[C@H](CO)C2)cc1C(F)(F)F

>  <assay_target>
EGFR del19/T790M/C797S (Homo sapiens, UniProt P00533, C797S/DEL746-750/T790M)

>  <IC50, nM>
8.6

$$$$
>  <compound>
C[C@]1(O)CC[C@@H](Nc2cc(Nc3ccnc(-c4cnn(S(=O)(=O)C5CC5)c4)n3)ncc2-c2ccn(C3COC3)n2)CC1

>  <assay_target>
EGFR del19/T790M/C797S (Homo sapiens, UniProt P00533, C797S/DEL746-750/T790M)

>  <IC50, nM>
0.5

$$$$
>  <compound>
CN(C)C(=O)[C@H]1CC[C@@H](Nc2cc(Nc3ccnc(-c4cnn(S(=O)(=O)C5CC5)c4)n3)ncc2-c2ccn(C)n2)CC1

>  <assay_target>
EGFR del19/T790M/C797S (Homo sapiens, UniProt P00533, C797S/DEL746-750/T790M)

>  <IC50, nM>
0.6

$$$$
>  <compound>
CN(C)CC1(C)CCC(Nc2cc(Nc3ccnc(-c4cnn(S(=O)(=O)C5CC5)c4)n3)ncc2-c2ccn(C)n2)CC1 (stereo not shown)

>  <assay_target>
EGFR del19/T790M/C797S (Homo sapiens, UniProt P00533, C797S/DEL746-750/T790M)

>  <IC50, nM>
0.8

$$$$

Origin of the recorded values: patent US12258327B2
